Biological target: UniProt Q96RI1
Sequence (Q96RI1 whole entry): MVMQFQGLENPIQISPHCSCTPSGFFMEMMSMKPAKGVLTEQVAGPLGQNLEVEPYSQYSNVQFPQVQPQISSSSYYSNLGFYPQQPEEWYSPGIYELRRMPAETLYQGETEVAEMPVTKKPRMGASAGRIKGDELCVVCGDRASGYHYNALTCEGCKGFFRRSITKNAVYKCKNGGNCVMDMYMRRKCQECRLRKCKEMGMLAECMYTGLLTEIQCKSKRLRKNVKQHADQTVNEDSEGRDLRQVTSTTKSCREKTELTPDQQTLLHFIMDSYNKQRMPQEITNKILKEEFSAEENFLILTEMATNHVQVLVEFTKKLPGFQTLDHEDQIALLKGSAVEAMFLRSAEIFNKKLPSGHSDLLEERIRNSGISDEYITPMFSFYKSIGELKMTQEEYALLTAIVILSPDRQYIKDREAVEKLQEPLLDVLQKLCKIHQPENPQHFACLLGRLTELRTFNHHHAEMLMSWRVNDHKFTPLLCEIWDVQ
Catalogue of EC50 readings, one per entry.
// note: answer is a bare numeric in µM

CS(=O)(=O)Nc1ccc(CNC(=O)c2ccc(N3CCOCC3)cc2)c(Cl)c1: 4.4

Which EC50 value belongs to "CC(C)Oc1ccc(C(=O)NCc2ccc(NS(C)(=O)=O)cc2Cl)cc1" ?
0.4

Which EC50 value belongs to "CC(F)(F)c1ccc(C(=O)NCc2ccc(NS(C)(=O)=O)cc2Cl)cc1" ?
1.2

Which EC50 value belongs to "CS(=O)(=O)Nc1ccc(CNC(=O)c2ccc(N3CCC3)cc2)c(Cl)c1" ?
13

# credit: ChEMBL document CHEMBL5034009
